tested on: Rhipacephalus sanguineus, adult ticks; assay: Contact activity against adult ticks, coated glass vial assay; type: in vivo; conditions: Conc. 0.78 ug/cm2, 24 h
Measurement Kind: % Mortality 24 h (%)
Give bare numbers, in %.

Example entries begin here.
Query: Return reported % Mortality 24 h; argument: N#Cc1nn(-c2c(Cl)cc(C(F)(F)F)cc2Cl)c(N)c1[S+]([O-])C(F)(F)F (centres unmarked) [Standard, Fipronil, reference compound]
Result: 100

Query: Given CC1C(Cl)(Cl)C1(C)c1nn(-c2c(Cl)cc(C(F)(F)F)cc2Cl)cc1C#N (centres unmarked) [Example 7] , state its recorded % Mortality 24 h.
Result: 10

Query: Quick one: % Mortality 24 h for CC1(c2nn(-c3c(Cl)cc(C(F)(F)F)cc3Cl)c(Cl)c2C#N)CC1(Br)Br (centres unmarked) [Example 20] ?
Result: 20

Respectfully, I request % Mortality 24 h for each entry included below.
1. CC1(c2nn(-c3c(Cl)cc(C(F)(F)F)cc3Cl)c(N)c2C#N)CC1(Cl)Cl (centres unmarked) [Example 19]
2. CC1(c2nn(-c3c(Cl)cc(C(F)(F)F)cc3Cl)c(N)c2C#N)CC1(Br)Br (centres unmarked) [Example 21]
3. CC1(c2nn(-c3c(Cl)cc(C(F)(F)F)cc3Cl)c(I)c2C#N)CC1(Cl)Cl (centres unmarked) [Example 31]
4. CN(C)c1c(C#N)c(C2(C)CC2(Cl)Cl)nn1-c1c(Cl)cc(C(F)(F)F)cc1Cl (centres unmarked) [Example 32]
5. CC1(c2nn(-c3c(Cl)cc(C(F)(F)F)cc3Cl)c(Br)c2C#N)CC1(Cl)Cl (centres unmarked) [Example 29]

Result:
1: 20; 2: 10; 3: 20; 4: 60; 5: 40

----------
Test system: newly emerged larvae of Lucilia sericata, blowfly
Assay: Efficacy against blowfly larvae, treated paper/serum bioassay
Assay type: in vivo
Details: Conc. 10.0 ppm; 24 h; blowfly larvae
Protocol: Evaluation of Efficacy of Test Compounds Against Blowfly Larvae The efficacy of a test compound against newly emerged larvae of Lucilia sericata, blowfly, is evaluated using a treated paper/serum bioassay. In this evaluation, a solution of test compound in acetone is applied to a filter paper disc and the disc is allowed to dry. Bovine serum and about 20 newly emerged blowfly larvae are added to the treated paper disc and the mortality is assessed at 24 h and 48 h. The data are averaged.
Measurement Kind: % Mortality 24 h (%)
Give bare numbers, in %.

Consider the worked cases shown below.
Query: For CC1(c2nn(-c3c(Cl)cc(C(F)(F)F)cc3Cl)c([N+](=O)[O-])c2C#N)CC1(Cl)Cl (centres unmarked) [Example 30] , what is its reported % Mortality 24 h?
Result: 10

Query: Quick one: % Mortality 24 h of CC1(c2nn(-c3c(Cl)cc(Cl)cc3Cl)c(N)c2C#N)CC1(Cl)Cl (centres unmarked) [Example 25] ?
Result: 0

Query: For the molecule shown here, N#Cc1c(C2CC2)nn(-c2c(Cl)cc(C(F)(F)F)cc2Cl)c1N [Example 24] , give the reported % Mortality 24 h.
Result: 0

Query: What measured % Mortality 24 h goes with CC1(c2nn(-c3c(Cl)cc(C(F)(F)F)cc3Cl)c(NC(=O)C3CC3)c2C#N)CC1(Cl)Cl (centres unmarked) [Example 36] ?
Result: 0

***
Query: Record request: % Mortality 24 h value, item N#Cc1c(C2CC2)nn(-c2c(Cl)cc(C(F)(F)F)cc2Cl)c1Cl [Example 26]
Result: 0

----------
tested on: newly emerged larvae of Lucilia sericata, blowfly; experiment: Efficacy against blowfly larvae, treated paper/serum bioassay; format: in vivo; details: Conc. 20.0 ppm; 48 h; blowfly larvae
Measurement Kind: % Mortality 48 h (%)
Numbers only, in %.

Worked set:
Query: # % Mortality 48 h lookup, item CC1(c2nn(-c3c(Cl)cc(C(F)(F)F)cc3Cl)c(N)c2C#N)CC1(Br)Br (stereo not shown) [Example 21]
Result: 100

Query: Query (compound): CN(C)c1c(C#N)c(C2(C)CC2(Cl)Cl)nn1-c1c(Cl)cc(C(F)(F)F)cc1Cl (stereo not shown) [Example 32] ; field requested: % Mortality 48 h
Result: 96

Query: Look up % Mortality 48 h for this compound: N#Cc1cn(-c2c(Cl)cc(C(F)(F)F)cc2Cl)nc1C1(c2ccc(Cl)cc2)CC1 [Example 10]
Result: 0

Query: Given the entry CC1(c2nn(-c3c(Cl)cc(C(F)(F)F)cc3Cl)c(N(C(=O)C3CC3)C(=O)C3CC3)c2C#N)CC1(Cl)Cl (stereo not shown) [Example 35] , report its measured % Mortality 48 h.
Result: 0

Query: // % Mortality 48 h lookup, key: N#Cc1cn(-c2c(Cl)cc(C(F)(F)F)cc2Cl)nc1C1(c2ccc(Cl)cc2Cl)CC1 [Example 17]
Result: 0

# per-item lookup of % Mortality 48 h; items listed below
1. CC1(c2nn(-c3c(Cl)cc(C(F)(F)F)cc3Cl)c(Br)c2C#N)CC1(Cl)Cl (stereo not shown) [Example 29]
2. CC1(c2nn(-c3c(Cl)cc(C(F)(F)F)cc3Cl)c(NC(=O)C3CC3)c2C#N)CC1(Cl)Cl (stereo not shown) [Example 36]
3. CC1(c2nn(-c3c(Cl)cc(Cl)cc3Cl)cc2C#N)CC1 [Example 11]
4. CC1(c2nn(-c3c(Cl)cc(C(F)(F)F)cc3Cl)c([N+](=O)[O-])c2C#N)CC1(Cl)Cl (stereo not shown) [Example 30]
5. CCOC=Nc1c(C#N)c(C2(C)CC2(Cl)Cl)nn1-c1c(Cl)cc(C(F)(F)F)cc1Cl (racemic) [Example 40]

Result:
1. 100
2. 10
3. 0
4. 20
5. 100

Each compound below has a recorded value; state its % Mortality 48 h.
1. CC1(c2nn(-c3c(Cl)cc(Cl)cc3Cl)cc2C#N)CC1(Cl)Cl (stereo not shown) [Example 6]
2. CCCOC=Nc1c(C#N)c(C2(C)CC2(Cl)Cl)nn1-c1c(Cl)cc(C(F)(F)F)cc1Cl (racemic) [Example 39]
3. CC1(c2nn(-c3c(Cl)cc(C(F)(F)F)cc3Cl)c(Cl)c2C#N)CC1(Br)Br (stereo not shown) [Example 20]
4. CC1(c2nn(-c3c(Cl)cc(Cl)cc3Cl)c(Br)c2C#N)CC1(Cl)Cl (stereo not shown) [Example 28]
5. CCN(CC)c1c(C#N)c(C2(C)CC2(Cl)Cl)nn1-c1c(Cl)cc(C(F)(F)F)cc1Cl (stereo not shown) [Example 33]
6. CC1(c2nn(-c3c(Cl)cc(Cl)cc3Cl)c(N)c2C#N)CC1(Cl)Cl (stereo not shown) [Example 25]

Result:
[70, 100, 100, 100, 100, 5]

----------
Provide the recorded % Mortality 48 h for the entries that follow.
system: newly emerged larvae of Lucilia sericata, blowfly; test: Efficacy against blowfly larvae, treated paper/serum bioassay; type: in vivo; conditions: Conc. 20.0 ppm; 48 h; blowfly larvae
One number for each entry, in %.

A selection of reference data follows.
Query: If you can, please state the reported % Mortality 48 h value of CN(C)C=Nc1c(C#N)c(C2(C)CC2(Cl)Cl)nn1-c1c(Cl)cc(C(F)(F)F)cc1Cl (centres unmarked) .
Result: 0

Query: Fill in the blank: the reported % Mortality 48 h of `COc1ccc(C2(c3nn(-c4c(Cl)cc(C(F)(F)F)cc4Cl)cc3C#N)CC2)cc1` is ____.
Result: 0

Query: For CC1(c2nn(-c3c(Cl)cc(C(F)(F)F)cc3Cl)c(Br)c2C#N)CC1(Br)Br (centres unmarked) , what is its reported % Mortality 48 h?
Result: 100

Query: Any idea what % Mortality 48 h was measured for `COc1ccc(C2(c3nn(-c4c(Cl)cc(Cl)cc4Cl)cc3C#N)CC2)cc1` ?
Result: 0

Return reported % Mortality 48 h values for all items listed beneath this line.
1. CC1(c2nn(-c3c(Cl)cc(Cl)cc3Cl)cc2C#N)CC1(Br)Br (centres unmarked)
2. N#Cc1cn(-c2c(Cl)cc(Cl)cc2Cl)nc1C1(c2ccc(Cl)cc2Cl)CC1
3. CC1(c2nn(-c3c(Cl)cc(C(F)(F)F)cc3Cl)cc2C#N)CC1(Br)Br (centres unmarked)
4. CC1(c2nn(-c3c(Cl)cc(C(F)(F)F)cc3Cl)c(I)c2C#N)CC1(Cl)Cl (centres unmarked)

Result:
90
0
100
100

----------
tested on: newly emerged larvae of Lucilia sericata, blowfly; experiment: Efficacy against blowfly larvae, treated paper/serum bioassay; assay type: in vivo; conditions: Conc. 10.0 ppm; 48 h; blowfly larvae
Measurement Kind: % Mortality 48 h (%)
Numbers only, in %.

Worked cases, % Mortality 48 h given:
Query: Fill in the blank: the reported % Mortality 48 h of CC1(c2nn(-c3c(Cl)cc(C(F)(F)F)cc3Cl)c([N+](=O)[O-])c2C#N)CC1(Cl)Cl (stereo not shown) [Example 30] is ____.
Result: 50

Query: Which % Mortality 48 h is listed for N#Cc1c(C2CC2)nn(-c2c(Cl)cc(C(F)(F)F)cc2Cl)c1N [Example 24] ?
Result: 0

Query: % Mortality 48 h; subject: N#Cc1c(C2CC2)nn(-c2c(Cl)cc(C(F)(F)F)cc2Cl)c1Cl [Example 26]
Result: 50

Continue with the compound presented below.
Query: Which measured % Mortality 48 h value corresponds to CC1(c2nn(-c3c(Cl)cc(Cl)cc3Cl)c(N)c2C#N)CC1(Cl)Cl (stereo not shown) [Example 25] ?
Result: 0
